Target: Rac GTPase-activating protein 1 (Homo sapiens, UniProt Q9H0H5)
Sequence (Q9H0H5 whole entry): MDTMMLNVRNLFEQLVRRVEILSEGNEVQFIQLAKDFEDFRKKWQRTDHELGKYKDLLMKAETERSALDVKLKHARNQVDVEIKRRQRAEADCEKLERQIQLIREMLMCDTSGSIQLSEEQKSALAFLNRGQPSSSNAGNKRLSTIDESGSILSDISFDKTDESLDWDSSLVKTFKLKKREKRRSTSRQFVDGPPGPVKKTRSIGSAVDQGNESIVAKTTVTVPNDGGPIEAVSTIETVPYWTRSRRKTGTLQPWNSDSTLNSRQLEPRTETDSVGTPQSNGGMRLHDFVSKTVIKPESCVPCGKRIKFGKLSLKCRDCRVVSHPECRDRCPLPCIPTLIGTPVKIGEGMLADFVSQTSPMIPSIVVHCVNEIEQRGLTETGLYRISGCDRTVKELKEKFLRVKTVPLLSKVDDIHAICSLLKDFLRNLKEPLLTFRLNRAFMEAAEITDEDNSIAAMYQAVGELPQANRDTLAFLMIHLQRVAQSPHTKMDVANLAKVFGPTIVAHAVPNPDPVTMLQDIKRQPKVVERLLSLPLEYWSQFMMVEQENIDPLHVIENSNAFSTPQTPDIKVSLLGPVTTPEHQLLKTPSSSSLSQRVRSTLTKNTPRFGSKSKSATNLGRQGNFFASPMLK
Assay: blockers of MgcRacGAP-driven Rac1 GTP hydrolysis – biochemical, ADP Hunter fluorescence, primary and confirmatory, confirmation (AID 624330)
Type: functional
Activity calls are given as the source filed them. No rule for the calls is given here.
measured_metric: IC50

Inquiry: Request - read-out IC50 | tested on Rac GTPase-activating protein 1 (Homo sapiens, UniProt Q9H0H5) | compound COc1ccc(/C=C2\C(=O)NC(=S)N(C)C2=O)cc1C
Reply text: 21.4 µM (active)

Inquiry: Request - read-out IC50 | tested on Rac GTPase-activating protein 1 (Homo sapiens, UniProt Q9H0H5) | compound O=c1oc2ccccc2cc1-c1csc(Nc2ccc(O)cc2)n1
Reply text: 70.1 µM (active)

Inquiry: Request - read-out IC50 | tested on Rac GTPase-activating protein 1 (Homo sapiens, UniProt Q9H0H5) | compound c1cc(CN2CCN(C3CCCCCC3)CC2)ccn1
Reply text: 92 µM (active)

Inquiry: Request - read-out IC50 | tested on Rac GTPase-activating protein 1 (Homo sapiens, UniProt Q9H0H5) | compound CCn1c(=O)n(CC)c2cc(N3CCCC3)c(NC(=O)c3ccccc3)cc21
Reply text: 91 µM (active)

Inquiry: Request - read-out IC50 | tested on Rac GTPase-activating protein 1 (Homo sapiens, UniProt Q9H0H5) | compound COc1ccc(S(=O)(=O)N2CCC(N3CCN(c4ccccc4OC)CC3)CC2)cc1
Reply text: 121 µM (active)

Inquiry: Request - read-out IC50 | tested on Rac GTPase-activating protein 1 (Homo sapiens, UniProt Q9H0H5) | compound O=C(CCn1cnc2ccccc21)N/N=C/c1ccc(O)cc1
Reply text: 51.6 µM (active)

Inquiry: Request - read-out IC50 | tested on Rac GTPase-activating protein 1 (Homo sapiens, UniProt Q9H0H5) | compound O=C(O)Cn1cc(/C=C2\C(=O)NC(=O)N(c3ccc(Cl)cc3)C2=O)c2ccccc21
Reply text: 255 µM (active)

Inquiry: Request - read-out IC50 | tested on Rac GTPase-activating protein 1 (Homo sapiens, UniProt Q9H0H5) | compound COc1cccc(CN2CCN(Cc3cc(OC)c(OC)c(OC)c3)CC2)c1OC
Reply text: 74.8 µM (active)

Inquiry: Request - read-out IC50 | tested on Rac GTPase-activating protein 1 (Homo sapiens, UniProt Q9H0H5) | compound O=C(O)c1cccc(N/N=C/c2cccs2)c1
Reply text: 75.3 µM (active)

Inquiry: Request - read-out IC50 | tested on Rac GTPase-activating protein 1 (Homo sapiens, UniProt Q9H0H5) | compound CCc1cc(-c2[nH]nc(CCC(=O)O)c2-c2nc3ccccc3n2C)c(O)cc1O
Reply text: 122 µM (active)

Inquiry: Request - read-out IC50 | tested on Rac GTPase-activating protein 1 (Homo sapiens, UniProt Q9H0H5) | compound Cc1cc(OCCCN2CCN(Cc3ccccc3)CC2)ccc1[N+](=O)[O-]
Reply text: 62 µM (active)

Inquiry: Request - read-out IC50 | tested on Rac GTPase-activating protein 1 (Homo sapiens, UniProt Q9H0H5) | compound CC1(C)CC(=O)C(/C=N/c2ccc(O)cc2)=C(O)C1
Reply text: 17 µM (active)

Inquiry: Request - read-out IC50 | tested on Rac GTPase-activating protein 1 (Homo sapiens, UniProt Q9H0H5) | compound CCN(CC)c1ccc(/C=C2/SC(=O)N(C(C)C)C2=O)o1
Reply text: 48.2 µM (active)

Inquiry: Request - read-out IC50 | tested on Rac GTPase-activating protein 1 (Homo sapiens, UniProt Q9H0H5) | compound CCN1CCN(CCOc2cccc(Cl)c2Cl)CC1
Reply text: 70.4 µM (active)
